All values here come from patent US12351581B2.

# Measurement Target: FGFR2 (Homo sapiens)
# Construct: biochemical assays using purified intracellular domains of the respective isoforms; purchased Carna Bioscience 08-134
# Test Protocol: FGFR wild type enzyme assay (HTRF KinEASE-TK)
# Type: biochemical
# Test Conditions: Table 3; ATP 2 uM; read-out: FGFR2 Enz
API: label(entry) gives label 1 if the entry's IC50 is strictly smaller than 0.5 nM; on equality or larger values it gives label 0.

In [3]: df
Out[3]:
                                   compound  class_label
0  Cc1c(-c2cc(O[C@@H](c3ccc(F)cn3)C(F)(F)F)c3c(C#N)cnn3c2)cnn1[C@H]1CC[C@H](O)CC1 [Compound 69]      label 1
1  Cc1c(-c2cc(O[C@H](C)c3ccc(F)cn3)c3c(C#N)cnn3c2)cnn1[C@H]1CCCN(C(=O)C(C)(C)O)C1 [Compound 17]      label 0
2  Cc1c(-c2cc(O[C@H](C)c3ccc(F)cn3)c3c(C#N)cnn3c2)cnn1[C@H]1CCCN(C(=O)C2(O)CCC2)C1 [Compound 40]      label 0
3  C[C@@H](Oc1cc(-c2ccc(N3CC[C@H](O)[C@@H](O)C3)nc2)cn2ncc(C#N)c12)c1ccc(F)cn1 [Compound 63]      label 1
4  C[C@@H](Oc1cc(-c2cnn(C3CCNCC3)c2)cn2ncc(C#N)c12)c1ncccc1F [Compound 8]      label 1
5  Cc1c(-c2cc(O[C@H](C)c3ccc(F)cn3)c3c(C#N)cnn3c2)cnn1C1CCN(C(=O)C2(N)CCC2)CC1 [Compound 43]      label 0
6  Cc1c(-c2cc(O[C@H](C)c3ccc(F)cn3)c3c(C#N)cnn3c2)cnn1[C@H]1CC[C@H](O)CC1 [Compound 1]      label 1

----------
# Lookup of reported IC50 keyed by entry
# Measurement Target: FGFR2 N549H (Homo sapiens, UniProt P21802, N549H)
# Construct: biochemical assays using purified intracellular domains of the respective isoforms
# Sequence (P21802 399-821 N549H limits assumed): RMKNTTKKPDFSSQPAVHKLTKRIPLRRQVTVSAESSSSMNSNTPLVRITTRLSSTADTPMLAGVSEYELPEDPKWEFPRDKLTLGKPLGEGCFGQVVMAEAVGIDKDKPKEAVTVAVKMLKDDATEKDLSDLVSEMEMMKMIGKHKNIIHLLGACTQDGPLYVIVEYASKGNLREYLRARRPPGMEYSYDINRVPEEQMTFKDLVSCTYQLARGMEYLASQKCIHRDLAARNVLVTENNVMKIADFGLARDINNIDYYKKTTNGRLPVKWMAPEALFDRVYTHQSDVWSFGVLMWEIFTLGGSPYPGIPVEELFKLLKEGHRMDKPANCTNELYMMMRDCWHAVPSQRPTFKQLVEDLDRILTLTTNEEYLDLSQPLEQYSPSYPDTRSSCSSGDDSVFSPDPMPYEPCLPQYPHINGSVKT
# Test Protocol: FGFR mutant enzyme assay (HTRF KinEASE-TK)
# Test Conditions: ATP 0.9 uM
Quantity Kind: IC50

>>> print(df.to_string())
                                   molecule  quantity_kind  recorded_measurement
0  C[C@@H](Oc1cc(-c2cnn(C3CCN(C#N)CC3)c2N)cn2ncc(C#N)c12)c1ccc(F)cn1 [Compound 47]           IC50                0.4 nM
1  Cc1c(-c2cc(O[C@H](C)c3ccccn3)c3c(C#N)cnn3c2)cnn1C1CCNCC1 [Compound 5]           IC50                0.7 nM
2  Cc1c(-c2cc(O[C@H](C)c3ccc(F)cn3)c3c(C#N)cnn3c2)cnn1[C@H]1CCCC[C@@H]1O [Compound 61]           IC50                0.4 nM
3  Cc1c(-c2cc(O[C@H](C)c3ccccn3)c3c(C#N)cnn3c2)cnn1C1CCN(C)CC1 [Compound 7]           IC50                0.5 nM
4  Cc1c(-c2cc(O[C@H](C)c3ccc(F)cn3)c3c(C#N)cnn3c2)cnn1[C@H]1CCCN(C(=O)[C@H](C)O)C1 [Compound 18]           IC50                0.5 nM
5  Cc1c(-c2cc(O[C@H](C)c3ccc(Cl)cn3)c3c(C#N)cnn3c2)cnn1[C@H]1CCCNC1 [Compound 14]           IC50                 14 nM

----------
# Measurement Target: FGFR2 N549H (Homo sapiens, UniProt P21802, N549H)
# Construct: biochemical assays using purified intracellular domains of the respective isoforms
# Test Protocol: FGFR mutant enzyme assay (HTRF KinEASE-TK)
# Test Conditions: ATP 0.9 uM
pIC50: −log10 of the molar value.
# Lookup of reported pIC50 keyed by entry
Quantity Kind: pIC50

>>> print(df.to_string())
                                    compound  recorded_measurement
 0  Cc1c(-c2cc(O[C@H](C)c3ccc(F)cn3)c3c(C#N)cnn3c2)cnn1[C@H]1CC[C@H](OC(=O)[C@@H](N)C(C)C)CC1 [Compound 53]                  9.30
 1  C[C@@H](Oc1cc(-c2ccc(N3CC[C@@H](O)[C@@H](O)C3)nc2)cn2ncc(C#N)c12)c1ccc(F)cn1 [Compound 25]                  9.60
 2  Cc1c(-c2cc(O[C@H](C)c3ccc(F)cn3)c3c(C#N)cnn3c2)cnn1C1CCN(C(=O)CO)CC1 [Compound 42]                  9.19
 3  Cc1c(-c2cc(O[C@@H](CO)c3ccc(F)cn3)c3c(C#N)cnn3c2)cnn1[C@H]1CC[C@H](O)CC1 [Compound 66]                  6.97
 4  Cc1nn(C2CCN(C)CC2)c(C)c1-c1cc(O[C@H](C)c2ccccn2)c2c(C#N)cnn2c1 [Compound 6]                  8.62
 5  CC(=O)N[C@H]1CC[C@H](n2ncc(-c3cc(O[C@H](C)c4ccc(F)cn4)c4c(C#N)cnn4c3)c2C)CC1 [Compound 36]                  9.30
 6  C[C@@H](Oc1cc(-c2ccc(N3CCN(C)[C@@H](CO)C3)nc2)cn2ncc(C#N)c12)c1ccc(F)cn1 [Compound 24]                  9.52
 7  Cc1c(-c2cc(OC(C)c3ccc(F)cn3)c3c(C#N)cnn3c2)cnn1[C@H]1CC[C@H](O)CC1 (some centres unmarked) [Compound 51]                  9.00
 8  Cc1c(-c2cc(O[C@H](C)c3cccnc3)c3c(C#N)cnn3c2)cnn1[C@H]1CC[C@H](O)CC1 [Compound 54]                  9.30
 9  Cc1nn(C2CCNCC2)c(C)c1-c1cc(O[C@H](C)c2ccccn2)c2c(C#N)cnn2c1 [Compound 4]                  8.70
10  Cc1c(-c2cc(O[C@H](C)c3ccc(F)cn3)c3c(C#N)cnn3c2)cnn1[C@H]1CC[C@@H](O)CC1 [Compound 46]                  9.52
11  Cc1c(-c2cc(O[C@H](C)c3ccc(F)cn3)c3c(C#N)cnn3c2)cnn1C[C@H](O)CO [Compound 27]                  8.30
12  C[C@@H](Oc1cc(-c2cnn([C@H]3CC[C@H](O)CC3)c2N)cn2ncc(C#N)c12)c1ccc(F)cn1 [Compound 32]                  9.52
13  C[C@@H](Oc1cc(-c2cnn(C3CCNCC3)c2)cn2ncc(C#N)c12)c1ccccn1 [Compound 2]                 10.30
14  C[C@@H](Oc1cc(-c2ccc(N3CC[C@H](O)[C@H](O)C3)nc2)cn2ncc(C#N)c12)c1ccc(F)cn1 [Compound 26]                  9.52
15  C[C@@H]1CN(c2ccc(-c3cc(O[C@H](C)c4ccc(F)cn4)c4c(C#N)cnn4c3)cn2)C[C@H](C)O1 [Compound 16]                  9.52
16  Cc1c(-c2cc(O[C@H](C)c3ccc(F)cn3)c3c(C#N)cnn3c2)cnn1[C@H]1CCCN(C(=O)C2(O)CCC2)C1 [Compound 40]                  9.22
17  C[C@@H](Oc1cc(-c2ccc(N3CCC(O)CC3)nc2)cn2ncc(C#N)c12)c1ccc(F)cn1 [Compound 56]                  9.70
18  Cc1nn([C@H]2CCCNC2)c(C)c1-c1cc(O[C@H](C)c2ncccc2F)c2c(C#N)cnn2c1 [Compound 11]                  8.34
19  Cc1c(-c2cc(OC(C)c3ccc(F)cn3)c3c(C#N)cnn3c2)cnn1[C@H]1CC[C@@H](O)CC1 (some centres unmarked) [Compound 52]                  9.00
20  Cc1c(-c2cc(O[C@H](C)c3ccc(F)cn3)c3c(C#N)cnn3c2)cnn1[C@@H]1CCC[C@@H](O)C1 [Compound 68]                  9.00
21  Cc1c(-c2cc(O[C@H](C)c3ccc(F)cn3)c3c(C#N)cnn3c2)cnn1C1CCN(C(=O)[C@@H](N)C(C)C)CC1 [Compound 44]                  9.40
22  Cc1c(-c2cc(O[C@H](C)c3ccc(F)cn3)c3c(C#N)cnn3c2)cnn1C1CCN(C[C@H](O)CO)CC1 [Compound 39]                  9.40

----------
# Measurement Target: FGFR2 (Homo sapiens, UniProt P21802)
# Construct: biochemical assays using purified intracellular domains of the respective isoforms; purchased Carna Bioscience 08-134
# Sequence (P21802 399-821 limits assumed): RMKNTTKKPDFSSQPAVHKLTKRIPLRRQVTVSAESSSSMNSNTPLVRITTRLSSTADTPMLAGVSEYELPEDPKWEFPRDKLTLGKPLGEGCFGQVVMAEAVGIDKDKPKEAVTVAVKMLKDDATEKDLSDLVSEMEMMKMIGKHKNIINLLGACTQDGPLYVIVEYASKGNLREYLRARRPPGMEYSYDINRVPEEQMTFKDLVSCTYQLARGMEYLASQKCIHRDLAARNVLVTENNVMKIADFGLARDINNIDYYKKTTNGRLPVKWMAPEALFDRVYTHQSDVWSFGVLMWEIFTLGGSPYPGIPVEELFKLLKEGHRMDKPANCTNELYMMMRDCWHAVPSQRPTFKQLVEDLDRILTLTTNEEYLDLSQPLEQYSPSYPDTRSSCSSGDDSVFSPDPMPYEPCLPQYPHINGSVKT
# Test Protocol: FGFR wild type enzyme assay (HTRF KinEASE-TK)
# Type: biochemical
# Test Conditions: Table 3; ATP 2 uM; read-out: FGFR2 Enz
Quantity Kind: IC50 (nM)

                                   molecule  quantity_kind  recorded_measurement
0  Cc1c(-c2cc(O[C@H](C)c3ccc(F)cn3)c3c(C#N)cnn3c2)cnn1[C@H]1CC[C@@H](O)CC1 [Compound 46]           IC50                   0.3
1  Cc1c(-c2cc(O[C@H](C)c3ccc(F)cn3)c3c(C#N)cnn3c2)cnn1[C@H]1CC[C@@](C)(O)CC1 [Compound 23]           IC50                   0.4
2  C[C@@H](Oc1cc(-c2ccc(N3CCN(C)[C@@H](CO)C3)nc2)cn2ncc(C#N)c12)c1ccc(F)cn1 [Compound 24]           IC50                   0.3
3  Cc1c(-c2cc(O[C@H](C)c3ccc(F)cn3)c3c(C#N)cnn3c2)cnn1[C@@H]1CCCN(C(=O)[C@H](C)O)C1 [Compound 49]           IC50                   2.6
